Task for the reader: assign each of the following binders its reported EC50 (read off the curve).
Biological target: T1, full length human tau protein 2N4R (hT40) (human, UniProt P10636 1-758)
T1 construct: recombinant; also called T441
T1 sequence (P10636 other isoform, or with tags, fused parts or gaps limits assumed): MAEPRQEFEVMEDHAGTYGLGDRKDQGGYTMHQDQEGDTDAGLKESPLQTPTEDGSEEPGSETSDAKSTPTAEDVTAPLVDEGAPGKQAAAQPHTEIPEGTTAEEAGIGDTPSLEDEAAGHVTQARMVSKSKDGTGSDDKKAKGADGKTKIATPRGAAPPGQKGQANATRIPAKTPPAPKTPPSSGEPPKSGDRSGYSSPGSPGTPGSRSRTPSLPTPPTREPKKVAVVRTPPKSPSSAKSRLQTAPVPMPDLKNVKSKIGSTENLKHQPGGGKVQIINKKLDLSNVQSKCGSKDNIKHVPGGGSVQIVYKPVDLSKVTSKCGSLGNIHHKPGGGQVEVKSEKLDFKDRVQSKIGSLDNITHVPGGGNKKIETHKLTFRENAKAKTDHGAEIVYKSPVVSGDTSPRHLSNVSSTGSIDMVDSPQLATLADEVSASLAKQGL
Assay: hT40 ELISA

Given the entry 412E10 scAb (scFv, not shown: small tags and cut ends, scAb) scFv: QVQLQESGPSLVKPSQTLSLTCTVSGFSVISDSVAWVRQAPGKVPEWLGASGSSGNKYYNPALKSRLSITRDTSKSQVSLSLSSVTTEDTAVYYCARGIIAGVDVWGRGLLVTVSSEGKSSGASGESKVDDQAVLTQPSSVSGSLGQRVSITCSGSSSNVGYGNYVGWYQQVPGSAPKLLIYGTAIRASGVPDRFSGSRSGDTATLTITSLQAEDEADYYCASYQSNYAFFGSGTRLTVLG , report its measured EC50 (read off the curve).
~1 µg/mL

And the next one, 412G11 (scFv) scAb: QVRLQESGPSLVKPSQTLSLTCTVSGFSLTSYALGWVRQAPGRAPEWIGNIWRGGRIEYNPALKSRLSITRDTSKSQVSLSLSSVTTEDTAVYYCSRSGGDWGPGLLVTVSSEGKSSGASGESKVDDQAVLTQPSSVSGSLGQRVSITCSGSSSNVGYGNYVGWYQQVPGSAPKLLIYGATSRASGVPDRFSGSRSENTATLTISSLQAEDEADYYCASYDRSESVVFGSGTRLTVLG ?
~2 µg/mL

And the next one, S1D12 scAb (scFv, not shown: small tags and cut ends, scAb) scFv: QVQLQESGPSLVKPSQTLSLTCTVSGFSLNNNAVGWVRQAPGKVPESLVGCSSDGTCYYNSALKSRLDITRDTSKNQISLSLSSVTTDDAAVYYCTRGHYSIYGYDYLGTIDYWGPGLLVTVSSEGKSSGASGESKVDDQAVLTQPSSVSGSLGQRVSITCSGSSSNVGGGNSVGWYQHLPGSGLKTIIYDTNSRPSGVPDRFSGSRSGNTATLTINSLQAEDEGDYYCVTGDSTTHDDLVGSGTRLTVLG ?
~1 µg/mL

And the next one, 412E6 (scFv) scAb: QVQLQESGPSLVKPSETLSLTCTVSGFSLTNYGVGWVRQAPGKALEWLGNIYSGGSTYYNPALKSRLSITRDTSKSQVSLSLNSVTLEDTAVYYCGRGGVGSVDVWGPGLLVTVSSEGKSSGASGESKVDDQAVLTQPPSVSGSPGQRVSITCSGGRNNIGRGTFVDWYQQLPGSGLKTVIYGTDRRPPGVPDRFSGSKTGNAATLTITSLQAEDEADYWCATYDYSNDMIILGSGTRLTVLG ?
~6 µg/mL
